Biological target: BP0403 (Bordetella pertussis)
Construct: BP0403SBP (residues 208–503), isolated C-terminal SBP domain; full-length BP0403FL (without signal peptide) also shifted in DSF
Assay: intrinsic tyrosine fluorescence titration (n = […]); DSF shift on full-length protein and SBP domain
pKd: −log10 of the molar value.

>  <compound>
N[C@@H](CCC(=O)O)C(=O)O [L-glutamate]

>  <target>
BP0403 (Bordetella pertussis)

>  <pKd>
6.74

$$$$

###

Target: BP0403 (Bordetella pertussis, UniProt Q7VSK8, Y219A)
Sequence (Q7VSK8 entry or part of it): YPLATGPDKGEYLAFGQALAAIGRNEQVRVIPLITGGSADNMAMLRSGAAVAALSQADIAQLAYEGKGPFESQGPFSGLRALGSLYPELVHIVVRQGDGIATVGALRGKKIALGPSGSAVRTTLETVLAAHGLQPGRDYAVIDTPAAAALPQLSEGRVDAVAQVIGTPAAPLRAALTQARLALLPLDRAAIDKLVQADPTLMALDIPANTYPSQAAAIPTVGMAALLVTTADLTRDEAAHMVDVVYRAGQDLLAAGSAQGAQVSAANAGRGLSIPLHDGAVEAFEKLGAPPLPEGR
Experiment: intrinsic tyrosine fluorescence titration
pKd: −log10 of the molar value.

>  <molecule>
N[C@@H](CCC(=O)O)C(=O)O [L-glutamate]

>  <pKd>
4.51

$$$$
